Where these numbers come from: PubChem BioAssay AID463173

- Tested on: Wild type
- experiment-description: S. aureus survival, RN4220 and DeltatarO strains – OD600, teichoic acid synthesis inhibitors, primary screen (AID 463173)
- assay-context: S. aureus RN4220 wild type/DeltatarO growth, OD600, 18 h, active compounds read low, screened at 18.75 µg/mL (by protocol)
About 1,700 (3.3%) of roughly 52,000 compounds were called active. Shown is part of a subset that was picked to be rich in actives.
Lab note: class by survival, see I = under 60%, II = from 60% up to 80%, III = 80% and over

>  <sample-smiles>
COc1cccc(C(=O)c2cn(CC(=O)NCCc3ccccc3)c3nc(C)ccc3c2=O)c1

>  <category>
II

$$$$
>  <sample-smiles>
CCOc1ccc(NC(=O)C(=O)NCCc2csc3nc(-c4ccccc4F)nn23)cc1

>  <category>
I

$$$$
>  <sample-smiles>
CCc1ccc(-n2nc3ccc(NC(=O)COc4ccc(OC)cc4)cc3n2)cc1

>  <category>
III

$$$$
>  <sample-smiles>
O=C(Cn1c(=O)n(Cc2ccc(C(=O)NCc3ccc4c(c3)OCO4)cc2)c(=O)c2ccccc21)Nc1ccc(F)cc1F

>  <category>
III

$$$$
>  <sample-smiles>
Cc1ccc(C(=O)Nc2ccc3c(c2)N(C)C(=O)c2ccccc2S3)cc1

>  <category>
III

$$$$
>  <sample-smiles>
Cc1c(-c2cccc(NC(=O)Cc3ccccc3)c2)nc2ncccn12

>  <category>
II

$$$$
>  <sample-smiles>
COc1ccccc1-c1cc(C(=O)N2CCN(c3ccccc3)CC2)no1

>  <category>
I

$$$$
>  <sample-smiles>
CCn1c(=O)n(-c2ccc3c(c2)OCO3)c2nc(-c3ccc(C(C)C)cc3)nc(C(N)=O)c21

>  <category>
III

$$$$
>  <sample-smiles>
NC(=O)CSc1nc2ccc(NC(=O)COc3ccccc3)cc2s1

>  <category>
III

$$$$
>  <sample-smiles>
COc1cccc(CNC(=O)CN2C(=O)COc3ccc(S(=O)(=O)N4CCCCC4)cc32)c1

>  <category>
III

$$$$
>  <sample-smiles>
O=C(/C=C\c1ccco1)Oc1cccc2cccnc12

>  <category>
I

$$$$
>  <sample-smiles>
O=C(Oc1cccc2cccnc12)c1ccccc1

>  <category>
I

$$$$
>  <sample-smiles>
COc1ccc(-n2c(-c3ccc(C)cc3)cc3c2CC(C)(C)CC3=O)c(OC)c1

>  <category>
III

$$$$
>  <sample-smiles>
COc1cccc(-c2cc(C(=O)N3CCN(c4ccccc4OC)CC3)no2)c1

>  <category>
I

$$$$
>  <sample-smiles>
COc1ccc(-n2c(-c3ccc(Cl)cc3)cc3c2CC(C)(C)CC3=O)c(OC)c1

>  <category>
I

$$$$
>  <sample-smiles>
Cc1ccc(CCNC(=O)c2nn(C)c3c2CSc2ccccc2-3)cc1

>  <category>
III

$$$$
>  <sample-smiles>
Cc1ccc(C(=O)Nc2ccc(C(=O)O)cc2)cc1S(=O)(=O)Nc1ccccc1

>  <category>
II

$$$$
>  <sample-smiles>
COc1ccc(-c2cccc(NS(=O)(=O)c3ccc(C)s3)c2)nn1

>  <category>
III

$$$$
>  <sample-smiles>
COc1ccc(OC)c(NC(=O)c2sc3nc4c(cc3c2N)CCCCCC4)c1

>  <category>
II

$$$$
>  <sample-smiles>
CCOC(=O)c1c(C)[nH]c(C)c1S(=O)(=O)NCC(=O)Nc1cc(Cl)ccc1OC

>  <category>
I

$$$$
>  <sample-smiles>
COc1ccc(C)cc1-n1c(-c2ccc(Cl)cc2)cc2c1CC(C)(C)CC2=O

>  <category>
III

$$$$
>  <sample-smiles>
CCOc1ccc(NC(=O)c2ccc(F)c(S(=O)(=O)N(CC)Cc3ccccc3)c2)cc1

>  <category>
II

$$$$
>  <sample-smiles>
COc1ccc(-c2cc(C(=O)N3CCN(c4ccc(F)cc4)CC3)no2)cc1OC

>  <category>
II

$$$$
>  <sample-smiles>
Cc1ccc2c(c1)-c1c(c(C(=O)NCCc3ccccc3)nn1C)CS2

>  <category>
I

$$$$
>  <sample-smiles>
O=C(/C=C/c1ccco1)OCCN1CCOCC1

>  <category>
III

$$$$
>  <sample-smiles>
COCCCNC(=O)c1ccc(Cn2c(=O)c3ccccc3n(CC(=O)Nc3c(C)cccc3C)c2=O)cc1

>  <category>
III

$$$$
>  <sample-smiles>
COCCCNC(=O)C1CCN(c2ncnc3c2nc2n3CCCCC2)CC1

>  <category>
III

$$$$
>  <sample-smiles>
Cc1ccc(-c2cc3c(n2-c2ccc(C)cc2)CC(C)(C)CC3=O)cc1

>  <category>
II

$$$$
>  <sample-smiles>
Cc1ccc(C(=O)Nc2ccccc2)cc1S(=O)(=O)Nc1ccccc1

>  <category>
II

$$$$
>  <sample-smiles>
COc1ccc(-c2cc(C(=O)N3CCN(c4ccccc4)CC3)no2)cc1

>  <category>
I

$$$$
>  <sample-smiles>
Fc1ccc(-c2noc3ncnc(NCc4cccc(Cl)c4)c23)cc1

>  <category>
I

$$$$
>  <sample-smiles>
O=C1c2ccccc2C(=O)N1COc1cccc2cccnc12

>  <category>
III

$$$$
>  <sample-smiles>
Cc1c(Cl)cccc1NC(=O)C(=O)NCCc1csc2nc(-c3ccccc3F)nn12

>  <category>
I

$$$$
>  <sample-smiles>
CCOc1ccc(CNC(=O)c2cc3c(=O)n(C)c4ccccc4c3s2)cc1

>  <category>
III

$$$$
>  <sample-smiles>
O=C(NCCc1csc2nc(-c3ccccc3F)nn12)C(=O)Nc1cc(F)ccc1F

>  <category>
II

$$$$
>  <sample-smiles>
CC(=O)Nc1cccc(NC(=O)C(=O)NCCc2csc3nc(-c4ccccc4F)nn23)c1

>  <category>
I

$$$$
>  <sample-smiles>
COc1ccccc1N1CCN(C(=O)c2cc(-c3ccccc3O)on2)CC1

>  <category>
II

$$$$
